IC50 data for human ROCK2 enzyme kinase domain (Homo sapiens) follow.

# count of solved cases: 3
O=c1[nH]ccc2c(S(=O)(=O)N3CCc4c(Cl)cc(Cl)cc43)cccc12: 1 to 10 µM
O=c1[nH]ccc2c(S(=O)(=O)N3CCc4cc(O)ccc43)cccc12: > 10 µM
N#Cc1ccc2c(c1)N(S(=O)(=O)c1cc(Cl)cc3c(=O)[nH]ccc13)CC2: > 10 µM

Form: item CC(=O)Nc1cc(C#N)cc2c1CCN2S(=O)(=O)c1cccc2c(=O)[nH]cc(Cl)c12 ; test system human ROCK2 enzyme kinase domain (Homo sapiens); IC50: < 0.1 µM

Form: item CNc1cc(C#N)cc2c1CCN2S(=O)(=O)c1cccc2c(=O)[nH]cc(Cl)c12 ; test system human ROCK2 enzyme kinase domain (Homo sapiens); IC50: < 0.1 µM

Form: item CC1CN(S(=O)(=O)c2cccc3c(=O)[nH]ccc23)c2ccccc21 (centres unmarked) ; test system human ROCK2 enzyme kinase domain (Homo sapiens); IC50: > 10 µM

Form: item Cc1c[nH]c(=O)c2cccc(S(=O)(=O)N3CCc4ncc(C#N)cc43)c12 ; test system human ROCK2 enzyme kinase domain (Homo sapiens); IC50: 0.1 to 1 µM

Form: item Cc1cnc(O)c2cccc(S(=O)(=O)N3CCc4ccc(Cl)cc43)c12 ; test system human ROCK2 enzyme kinase domain (Homo sapiens); IC50: 1 to 10 µM

Form: item N#Cc1ccc2c(c1)N(S(=O)(=O)c1cccc3c(=O)[nH]cc(Cl)c13)CC2 ; test system human ROCK2 enzyme kinase domain (Homo sapiens); IC50: < 0.1 µM

Form: item Cc1cnc(O)c2cccc(S(=O)(=O)N3CCc4ccc(C#N)cc43)c12 ; test system human ROCK2 enzyme kinase domain (Homo sapiens); IC50: < 0.1 µM

Form: item Cc1cccc2c1CCN2S(=O)(=O)c1cccc2c(=O)[nH]ccc12 ; test system human ROCK2 enzyme kinase domain (Homo sapiens); IC50: 1 to 10 µM

Form: item O=c1[nH]ccc2c(S(=O)(=O)N3CCc4ccc(Cl)cc43)cccc12 ; test system human ROCK2 enzyme kinase domain (Homo sapiens); IC50: 0.1 to 1 µM

Form: item CC(=O)Nc1cc(C#N)cc2c1CCN2S(=O)(=O)c1cccc2c(=O)[nH]cc(C)c12 ; test system human ROCK2 enzyme kinase domain (Homo sapiens); IC50: < 0.1 µM

* * *

In this section we review reported pIC50 values for a set of compounds.
Target of assay: human ROCK1 catalytic domain (Homo sapiens, UniProt Q13464)
Construct: GST; purchased Carna BioSciences 01-109
Sequence (Q13464 1-477): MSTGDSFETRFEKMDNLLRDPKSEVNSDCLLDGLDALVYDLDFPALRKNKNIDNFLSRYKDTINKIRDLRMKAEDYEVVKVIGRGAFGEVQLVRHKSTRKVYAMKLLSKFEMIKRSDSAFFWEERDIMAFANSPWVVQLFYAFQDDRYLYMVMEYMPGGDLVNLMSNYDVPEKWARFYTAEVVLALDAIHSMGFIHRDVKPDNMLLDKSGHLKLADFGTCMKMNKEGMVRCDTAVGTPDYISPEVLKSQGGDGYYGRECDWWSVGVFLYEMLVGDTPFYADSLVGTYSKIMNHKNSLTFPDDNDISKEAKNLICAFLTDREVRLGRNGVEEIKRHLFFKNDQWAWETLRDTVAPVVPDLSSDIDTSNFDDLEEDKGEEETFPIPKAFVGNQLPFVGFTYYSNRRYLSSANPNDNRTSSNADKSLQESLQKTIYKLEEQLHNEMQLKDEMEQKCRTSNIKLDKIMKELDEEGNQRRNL
Experiment notes: fluorescence coupling (TR-FRET) enzymatic assay, ROCK1
Format: biochemical
Condition parameters: 4 nM enzyme, 4 μM ATP, 50 nM Ulight-CREBTide, one hour room temperature; read-out: ROCK1 IC50
pIC50: −log10 of the molar value.

# count of solved cases: 3
O=c1[nH]ccc2c(S(=O)(=O)N3CCc4c(Cl)cc(Cl)cc43)cccc12 [Example 16]: 5.00 to 6.00
Cc1ccc2c(c1)N(S(=O)(=O)c1cccc3c(=O)[nH]ccc13)CC2 [Example 6]: 5.00 to 6.00
N#Cc1cc(N)c2c(c1)N(S(=O)(=O)c1cccc3c(=O)[nH]ccc13)CC2 [Example 31]: > 7.00

Field: next compound
Measured pIC50 of CN(C)c1cc(C#N)cc2c1CCN2S(=O)(=O)c1cccc2c(=O)[nH]cc(Cl)c12 [Example 37] : 6.00 to 7.00

* * *

Target of assay: human ROCK1 catalytic domain (Homo sapiens)
Construct: GST; purchased Carna BioSciences 01-109
Experiment notes: fluorescence coupling (TR-FRET) enzymatic assay, ROCK1
Type: biochemical
Condition parameters: 4 nM enzyme, 4 μM ATP, 50 nM Ulight-CREBTide, one hour room temperature; read-out: ROCK1 IC50
pIC50: −log10 of the molar value.
In this section we review reported pIC50 values for a set of compounds.

Cc1cnc(O)c2cccc(S(=O)(=O)N3CCc4ccc(C#N)cc43)c12: > 7.00

Field: next compound
Measured pIC50 of Cc1c[nH]c(=O)c2cccc(S(=O)(=O)N3CCc4c(N(C)C)cc(C#N)cc43)c12 : 5.00 to 6.00

* * *

Target of assay: human ROCK1 catalytic domain (Homo sapiens, UniProt Q13464)
Construct: GST; purchased Carna BioSciences 01-109
Experiment notes: fluorescence coupling (TR-FRET) enzymatic assay, ROCK1
Format: biochemical
pIC50: −log10 of the molar value.
Reported metric: pIC50

Measured pIC50 of O=c1[nH]ccc2c(S(=O)(=O)N3CCc4c(CO)cccc43)cccc12 : 5.00 to 6.00

* * *

Target of assay: human ROCK1 catalytic domain (Homo sapiens, UniProt Q13464)
Construct: GST; purchased Carna BioSciences 01-109
Experiment notes: fluorescence coupling (TR-FRET) enzymatic assay, ROCK1
Type: biochemical
Condition parameters: 4 nM enzyme, 4 μM ATP, 50 nM Ulight-CREBTide, one hour room temperature; read-out: ROCK1 IC50
pIC50: −log10 of the molar value.
Reported metric: pIC50

Cc1cc(C#N)cc2c1CCN2S(=O)(=O)c1cccc2c(=O)[nH]ccc12: 6.00 to 7.00
N#Cc1ccc2c(c1)N(S(=O)(=O)c1cccc3c(=O)[nH]ncc13)CC2: 6.00 to 7.00
Cc1cccc2c1CCN2S(=O)(=O)c1cccc2c(=O)[nH]ccc12: 5.00 to 6.00
O=c1[nH]ncc2c(S(=O)(=O)N3CCc4ccc(Cl)cc43)cccc12: 5.00 to 6.00
CCNc1cc(C#N)cc2c1CCN2S(=O)(=O)c1cccc2c(=O)[nH]cc(C)c12: 5.00 to 6.00
O=c1[nH]ccc2c(S(=O)(=O)N3CCc4ccc(Cl)cc43)cc(Cl)cc12: < 5.00
Cc1c[nH]c(=O)c2cccc(S(=O)(=O)N3CCc4c(NCCN5C[C@H]6C[C@@H]5CO6)cc(C#N)cc43)c12: > 7.00

Field: next compound
Measured pIC50 of O=c1[nH]ccc2c(S(=O)(=O)N3CCc4ccc(F)cc43)cccc12 : 5.00 to 6.00

* * *

Target of assay: human ROCK1 catalytic domain (Homo sapiens, UniProt Q13464)
Construct: GST; purchased Carna BioSciences 01-109
Experiment notes: fluorescence coupling (TR-FRET) enzymatic assay, ROCK1
Assay type: biochemical
Condition parameters: 4 nM enzyme, 4 μM ATP, 50 nM Ulight-CREBTide, one hour room temperature; read-out: ROCK1 IC50
In this section we review reported IC50 values for a set of compounds.

# count of solved cases: 3
N#Cc1cnc2c(c1)N(S(=O)(=O)c1cccc3c(=O)[nH]cc(Cl)c13)CC2 [Example 40]: < 100 nM
O=c1[nH]ccc2c(S(=O)(=O)N3CCc4c(C5CC5)cccc43)cccc12 [Example 9]: > 10000 nM
CNc1cc(C#N)cc2c1CCN2S(=O)(=O)c1cccc2c(=O)[nH]cc(C)c12 [Example 41]: 100 to 1000 nM

Measured IC50 of CNc1cc(C#N)cc2c1CCN2S(=O)(=O)c1cccc2c(=O)[nH]cc(Cl)c12 [Example 42] : 100 to 1000 nM

Measured IC50 of N#Cc1cc(N)c2c(c1)N(S(=O)(=O)c1cccc3c(=O)[nH]cc(Cl)c13)CC2 [Example 36] : < 100 nM

Measured IC50 of O=c1[nH]ccc2c(S(=O)(=O)N3CCc4ccc(Cl)cc43)cccc12 [Example 4] : 100 to 1000 nM

Measured IC50 of N#Cc1ccc2c(c1)N(S(=O)(=O)c1cccc3c(=O)[nH]ccc13)CC2 [Example 15] : 100 to 1000 nM

Measured IC50 of N#Cc1cnc2c(c1)N(S(=O)(=O)c1cccc3c(=O)[nH]ccc13)CC2 [Example 38] : 100 to 1000 nM

Measured IC50 of CC1(C)CN(S(=O)(=O)c2cccc3c(=O)[nH]ccc23)c2ccccc21 [Example 12] : > 10000 nM

Measured IC50 of O=c1[nH]ccc2c(S(=O)(=O)N3CCc4ccccc43)cccc12 [Example 3] : 1000 to 10000 nM

Measured IC50 of CC(=O)Nc1cc(C#N)cc2c1CCN2S(=O)(=O)c1cccc2c(=O)[nH]ccc12 [Example 30] : < 100 nM

Measured IC50 of N#Cc1ccc2c(c1)N(S(=O)(=O)c1cccc3c(=O)[nH]cc(Cl)c13)CC2 [Example 27] : < 100 nM

* * *

In this section we review reported pIC50 values for a set of compounds.
Target of assay: UniProt:Q13976
Sequence (Q13976 1-686 isoform Q13976-2): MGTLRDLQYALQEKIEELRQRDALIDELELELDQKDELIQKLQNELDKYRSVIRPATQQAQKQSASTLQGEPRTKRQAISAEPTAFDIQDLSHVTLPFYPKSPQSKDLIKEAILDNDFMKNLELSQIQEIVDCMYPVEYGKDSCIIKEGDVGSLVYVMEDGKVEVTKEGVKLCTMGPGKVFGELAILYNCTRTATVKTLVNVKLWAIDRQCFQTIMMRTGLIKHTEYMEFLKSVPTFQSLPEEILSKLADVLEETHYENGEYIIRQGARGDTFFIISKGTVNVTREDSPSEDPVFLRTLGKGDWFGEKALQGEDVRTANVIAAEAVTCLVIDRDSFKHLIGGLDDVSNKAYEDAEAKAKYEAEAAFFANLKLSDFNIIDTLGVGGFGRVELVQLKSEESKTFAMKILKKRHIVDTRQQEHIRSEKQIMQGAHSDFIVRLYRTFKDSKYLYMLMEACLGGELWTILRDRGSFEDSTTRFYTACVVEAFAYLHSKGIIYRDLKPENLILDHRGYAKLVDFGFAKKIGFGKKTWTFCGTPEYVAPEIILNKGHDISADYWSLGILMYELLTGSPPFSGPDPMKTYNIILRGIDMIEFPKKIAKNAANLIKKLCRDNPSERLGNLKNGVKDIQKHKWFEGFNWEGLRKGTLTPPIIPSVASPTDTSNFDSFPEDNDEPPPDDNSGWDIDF
pIC50: −log10 of the molar value.

# count of solved cases: 3
CCNc1cc(C#N)cc2c1CCN2S(=O)(=O)c1cccc2c(=O)[nH]cc(Cl)c12 [Example 44]: < 5.00
CC(=O)Nc1cc(C#N)cc2c1CCN2S(=O)(=O)c1cccc2c(=O)[nH]cc(Cl)c12 [Example 35]: 5.00 to 6.00
CC(O)c1cccc2c1CCN2S(=O)(=O)c1cccc2c(=O)[nH]ccc12 (stereo not shown) [Example 11]: < 5.00

Measured pIC50 of CC1CN(S(=O)(=O)c2cccc3c(=O)[nH]ccc23)c2ccccc21 (stereo not shown) [Example 13] : < 5.00

Measured pIC50 of CNc1cc(C#N)cc2c1CCN2S(=O)(=O)c1cccc2c(=O)[nH]cc(C)c12 [Example 41] : < 5.00

Measured pIC50 of CC(=O)Nc1cc(C#N)cc2c1CCN2S(=O)(=O)c1cccc2c(=O)[nH]ccc12 [Example 30] : < 5.00

Measured pIC50 of O=c1[nH]ccc2c(S(=O)(=O)N3CCc4c(CO)cccc43)cccc12 [Example 7] : < 5.00

Measured pIC50 of N#Cc1cnc2c(c1)N(S(=O)(=O)c1cccc3c(=O)[nH]ccc13)CC2 [Example 38] : < 5.00

Measured pIC50 of O=S(=O)(c1cccc2c(O)ncc(F)c12)N1CCc2ccc(Cl)cc21 [Example 21] : < 5.00

Measured pIC50 of N#Cc1cc(C2CC2)c2c(c1)N(S(=O)(=O)c1cccc3c(=O)[nH]ccc13)CC2 [Example 17] : < 5.00
